# Tested on: MCF-7 (breast cancer) cell line
# Assay Comment: MTT cell viability assay, MCF-7
# Assay type: cell-based, human
# Measurement Parameters: Homo sapiens, MCF7; MTT assay, 72 h of incubation
Measure: IC50 (µM)

- Smiles Input: "Cc1cc(S(=O)(=O)NC(=N)n2c(=S)[nH]c3ccccc32)c(SCc2ccccc2)cc1Cl"
  IC50 / µM: 82
- Smiles Input: "Cc1cc(S(=O)(=O)NC(=N)n2c(=S)[nH]c3ccccc32)c(SCc2cc3c(cc2Cl)OCO3)cc1Cl"
  IC50 / µM: 50
- Smiles Input: "Cc1cc(S(=O)(=O)NC(=N)n2c(=S)[nH]c3ccccc32)c(SCc2ccc(Cl)cc2)cc1Cl"
  IC50 / µM: 73
- Smiles Input: "Cc1cc(S(=O)(=O)NC(=N)n2c(=S)[nH]c3ccccc32)c(SCc2cccc(C(F)(F)F)c2)cc1Cl"
  IC50 / µM: 49
- Smiles Input: "Cc1cc(S(=O)(=O)NC(=N)n2c(=S)[nH]c3ccccc32)c(SCc2cccc3ccccc23)cc1Cl"
  IC50 / µM: 56
- Smiles Input: "Cc1cc(S(=O)(=O)NC(=N)n2c(=S)[nH]c3ccccc32)c(SCc2ccc(C(F)(F)F)cc2)cc1Cl"
  IC50 / µM: 62

Measured values drawn from paper PMC10253812 for this set.
